src = patent US20260275395A1

Test system: BpRpiB (D-ribose-5-phosphate isomerase)
protocol-text: Substrate specificity of BpRpiB
Type: biochemical, Bacteroides plebeius
condition-set: substrate 2 mM, standard reaction conditions (50° C., 10 minutes)
assay-metric: Relative activity (%)

As a guide, the following entries are already answered.
>  <smiles-text>
O=C(CO)[C@@H](O)[C@@H](O)[C@H](O)CO

>  <Relative activity (%)>
Not detected

$$$$
>  <smiles-text>
O=C[C@@H](O)[C@@H](O)[C@H](O)[C@H](O)CO

>  <Relative activity (%)>
Not detected

$$$$
>  <smiles-text>
O=C(CO)[C@@H](O)[C@H](O)[C@H](O)CO

>  <Relative activity (%)>
Not detected

$$$$
>  <smiles-text>
O=C[C@H](O)[C@@H](O)[C@H](O)[C@H](O)CO

>  <Relative activity (%)>
Not detected

$$$$

Exercise: Annotate the molecule O=C(CO)[C@H](O)[C@H](O)CO with its measured Relative activity (%).
Solution: 100 ± 4.8%

###

Test system: BpXylA (xylose isomerase)
protocol-text: Substrate specificity of BpXylA
Assay type: biochemical, Bacteroides plebeius
condition-set: substrate 2 mM, standard reaction conditions (50 mM sodium phosphate pH 7.0, 1 mM Mg^2+, 50° C., 10 minutes); based on the activity for D-xylose
assay-metric: Relative activity (%)

>  <compound>
O=C[C@@H](O)[C@H](O)[C@H](O)CO [D-Arabinose]

>  <assay-metric>
Relative activity (%)

>  <result>
Not detected

$$$$
>  <compound>
O=C[C@H](O)[C@H](O)[C@H](O)CO [D-Ribose]

>  <assay-metric>
Relative activity (%)

>  <result>
33.2 ± 1.1%

$$$$
>  <compound>
O=C(CO)[C@@H](O)[C@H](O)[C@@H](O)CO [L-Sorbose]

>  <assay-metric>
Relative activity (%)

>  <result>
Not detected

$$$$
>  <compound>
O=C[C@H](O)[C@@H](O)[C@@H](O)CO [L-Arabinose]

>  <assay-metric>
Relative activity (%)

>  <result>
Not detected

$$$$
>  <compound>
O=C(CO)[C@@H](O)[C@H](O)CO [D-Xylulose]

>  <assay-metric>
Relative activity (%)

>  <result>
156.5 ± 2.2%

$$$$
>  <compound>
O=C(CO)[C@@H](O)[C@H](O)[C@H](O)CO [D-Fructose]

>  <assay-metric>
Relative activity (%)

>  <result>
Not detected

$$$$
>  <compound>
O=C[C@H](O)[C@@H](O)[C@H](O)[C@H](O)CO [D-Glucose]

>  <assay-metric>
Relative activity (%)

>  <result>
Not detected

$$$$
>  <compound>
O=C[C@H](O)[C@@H](O)[C@H](O)CO [D-Xylose]

>  <assay-metric>
Relative activity (%)

>  <result>
100 ± 2.2%

$$$$

Exercise: Please give measured Relative activity (%) of the following entry: O=C[C@@H](O)[C@@H](O)[C@H](O)[C@H](O)CO [D-Mannose]
Solution: Not detected

Exercise: Return the recorded Relative activity (%) value; entry: O=C(CO)[C@@H](O)[C@@H](O)[C@H](O)CO [D-Tagatose]
Solution: Not detected

Exercise: State its Relative activity (%): O=C(CO)[C@H](O)[C@H](O)CO [D-Ribulose]
Solution: 13.9 ± 13.8%
